The origin of these recorded values is patent US4690919A.

Test: Concentration in serum after oral administration to rats
Conditions: rat, 20 mg/kg
Attribute measured: concentration at 1 h (ng/mL)
Provide the reading as a plain figure in ng/mL.

Exam item: Tell me the measured concentration at 1 h of COC1C=COC2(C)Oc3c(C)c(O)c4c(=O)c(c5oc6cc(N7CCCC(C)C7)ccc6nc-5c4c3C2=O)NC(=O)C(C)=CC=CC(C)C(O)C(C)C(O)C(C)C(OC(C)=O)C1C (centres unmarked) , please.
Marked response: 2100

Exam item: Which concentration at 1 h is reported for this molecule? CCN(CC)c1ccc2nc3c4c5c6c(C)c(O)c4c(=O)c(c-3oc2c1)NC(=O)C(C)=CC=CC(C)C(O)C(C)C(O)C(C)C(OC(C)=O)C(C)C(OC)C=COC(C)(O6)C5=O (centres unmarked)
Marked response: 1800

Exam item: What measured concentration at 1 h goes with CCC1CCCCN1c1ccc2nc3c4c5c6c(C)c(O)c4c(=O)c(c-3oc2c1)NC(=O)C(C)=CC=CC(C)C(O)C(C)C(O)C(C)C(OC(C)=O)C(C)C(OC)C=COC(C)(O6)C5=O (centres unmarked) ?
Marked response: 2400

Exam item: Requested field: concentration at 1 h. Item: CCCN(CCC)c1ccc2nc3c4c5c6c(C)c(O)c4c(=O)c(c-3oc2c1)NC(=O)C(C)=CC=CC(C)C(O)C(C)C(O)C(C)C(OC(C)=O)C(C)C(OC)C=COC(C)(O6)C5=O (centres unmarked)
Marked response: 2000

Exam item: Could you share which concentration at 1 h value was measured for COC1C=COC2(C)Oc3c(C)c(O)c4c(=O)c(c5oc6cc(N7CCCC7)ccc6nc-5c4c3C2=O)NC(=O)C(C)=CC=CC(C)C(O)C(C)C(O)C(C)C(O)C1C (centres unmarked) ?
Marked response: 2700

---

Give concentration at 1 h for every item shown.
Assay: Concentration in serum after oral administration to rats
Conditions: rat, 20 mg/kg
Only the number, expressed in µg/mL, is required.

Exam item: For the compound shown here, COC1C=COC2(C)Oc3c(C)c(O)c4c(=O)c(c5oc6cc(N7CCCCCC7)ccc6nc-5c4c3C2=O)NC(=O)C(C)=CC=CC(C)C(O)C(C)C(O)C(C)C(OC(C)=O)C1C (stereo not drawn) , give the reported concentration at 1 h.
Marked response: 3.2

Exam item: What value of measured concentration at 1 h is listed for COC1C=COC2(C)Oc3c(C)c(O)c4c(=O)c(c5oc6cc(N7CCCCC7)ccc6nc-5c4c3C2=O)NC(=O)C(C)=CC=CC(C)C(O)C(C)C(O)C(C)C(O)C1C (stereo not drawn) ?
Marked response: 0.7

Exam item: Could you tell me which concentration at 1 h is on file for CCOCCN(CCOCC)c1ccc2nc3c4c5c6c(C)c(O)c4c(=O)c(c-3oc2c1)NC(=O)C(C)=CC=CC(C)C(O)C(C)C(O)C(C)C(OC(C)=O)C(C)C(OC)C=COC(C)(O6)C5=O (stereo not drawn) ?
Marked response: 2.1

---

I'd be grateful if you could share measured MIC for these entries.
Test system: Klebsiella pneumoniae IFO 3512
Experiment: Antibacterial activity (MIC), standard method of Japan Society of Chemotherapy
Format: cell-based
Conditions: IFO3512; Klebsiella pneumoniae IFO 3512; read-out: minimum inhibitory concentration (MIC)
Give a bare numeral; the unit µg/mL is implied.

Exam item: Name the reported MIC value associated with the compound CCOCCN(CCOCC)c1ccc2nc3c4c5c6c(C)c(O)c4c(=O)c(c-3oc2c1)NC(=O)C(C)=CC=CC(C)C(O)C(C)C(O)C(C)C(OC(C)=O)C(C)C(OC)C=COC(C)(O6)C5=O (stereo not shown)
Marked response: 10

Exam item: Name the reported MIC value associated with the compound CCN(C)c1ccc2nc3c4c5c6c(C)c(O)c4c(=O)c(c-3oc2c1)NC(=O)C(C)=CC=CC(C)C(O)C(C)C(O)C(C)C(OC(C)=O)C(C)C(OC)C=COC(C)(O6)C5=O (stereo not shown)
Marked response: 2.5

Exam item: Fill in: MIC of COC1C=COC2(C)Oc3c(C)c(O)c4c(=O)c(c5oc6cc(N7CCC7)ccc6nc-5c4c3C2=O)NC(=O)C(C)=CC=CC(C)C(O)C(C)C(O)C(C)C(OC(C)=O)C1C (stereo not shown) is ___
Marked response: 2.5

Exam item: Would you kindly share the measured MIC for COC1C=COC2(C)Oc3c(C)c(O)c4c(=O)c(c5oc6cc(N7CCSCC7)ccc6nc-5c4c3C2=O)NC(=O)C(C)=CC=CC(C)C(O)C(C)C(O)C(C)C(OC(C)=O)C1C (stereo not shown) ?
Marked response: 10

Exam item: Name the recorded MIC for COC1C=COC2(C)Oc3c(C)c(O)c4c(=O)c(c5oc6cc(N7CCCC7)ccc6nc-5c4c3C2=O)NC(=O)C(C)=CC=CC(C)C(O)C(C)C(O)C(C)C(OC(C)=O)C1C (stereo not shown) .
Marked response: 5

Exam item: What measured MIC goes with COC1C=COC2(C)Oc3c(C)c(O)c4c(=O)c(c5oc6cc(N7CCCCC7)ccc6nc-5c4c3C2=O)NC(=O)C(C)=CC=CC(C)C(O)C(C)C(O)C(C)C(OC(C)=O)C1C (stereo not shown) ?
Marked response: 10

Exam item: GET /values?readout=MIC&item= CCN(CC)c1ccc2nc3c4c5c6c(C)c(O)c4c(=O)c(c-3oc2c1)NC(=O)C(C)=CC=CC(C)C(O)C(C)C(O)C(C)C(OC(C)=O)C(C)C(OC)C=COC(C)(O6)C5=O (stereo not shown)
Marked response: 5

Exam item: Entry COC1C=COC2(C)Oc3c(C)c(O)c4c(=O)c(c5oc6cc(N7CCCC7)ccc6nc-5c4c3C2=O)NC(=O)C(C)=CC=CC(C)C(O)C(C)C(O)C(C)C(O)C1C (stereo not shown) : reported MIC = ?
Marked response: 5

Exam item: Give its MIC value. Item: COC(CN(C)c1ccc2nc3c4c5c6c(C)c(O)c4c(=O)c(c-3oc2c1)NC(=O)C(C)=CC=CC(C)C(O)C(C)C(O)C(C)C(OC(C)=O)C(C)C(OC)C=COC(C)(O6)C5=O)OC (stereo not shown)
Marked response: 5

Exam item: What does the data say about its MIC? Entry: COC1C=COC2(C)Oc3c(C)c(O)c4c(=O)c(c5oc6cc(N7CCN(C)CC7)ccc6nc-5c4c3C2=O)NC(=O)C(C)=CC=CC(C)C(O)C(C)C(O)C(C)C(OC(C)=O)C1C (stereo not shown)
Marked response: 1.25

---

Experiment: Concentration in serum after oral administration to rats
Conditions: rat, 20 mg/kg
Assignment: determine reported log10(concentration at 5 h) for the given compounds.
Recall that a logarithmic scale is used here: each number is log10 of concentration at 5 h in ng/mL.

Exam item: Value lookup for log10(concentration at 5 h); key = CCN(CC)c1ccc2nc3c4c5c6c(C)c(O)c4c(=O)c(c-3oc2c1)NC(=O)C(C)=CC=CC(C)C(O)C(C)C(O)C(C)C(OC(C)=O)C(C)C(OC)C=COC(C)(O6)C5=O (stereo not drawn) [compound 3]
Marked response: 3.11

Exam item: If you can, please state the reported log10(concentration at 5 h) value of CCOCCN(CCOCC)c1ccc2nc3c4c5c6c(C)c(O)c4c(=O)c(c-3oc2c1)NC(=O)C(C)=CC=CC(C)C(O)C(C)C(O)C(C)C(OC(C)=O)C(C)C(OC)C=COC(C)(O6)C5=O (stereo not drawn) [compound 9] .
Marked response: 3.26

Exam item: Form field: reported log10(concentration at 5 h) of COC1C=COC2(C)Oc3c(C)c(O)c4c(=O)c(c5oc6cc(N7CCCCC7)ccc6nc-5c4c3C2=O)NC(=O)C(C)=CC=CC(C)C(O)C(C)C(O)C(C)C(OC(C)=O)C1C (stereo not drawn) [compound 19]
Marked response: 4.22

Exam item: Which log10(concentration at 5 h) is listed for CCC1CCCCN1c1ccc2nc3c4c5c6c(C)c(O)c4c(=O)c(c-3oc2c1)NC(=O)C(C)=CC=CC(C)C(O)C(C)C(O)C(C)C(OC(C)=O)C(C)C(OC)C=COC(C)(O6)C5=O (stereo not drawn) [compound 25] ?
Marked response: 3.54

Exam item: Value lookup for log10(concentration at 5 h); key = COC1C=COC2(C)Oc3c(C)c(O)c4c(=O)c(c5oc6cc(N7CCCCC7)ccc6nc-5c4c3C2=O)NC(=O)C(C)=CC=CC(C)C(O)C(C)C(O)C(C)C(O)C1C (stereo not drawn) [compound 50]
Marked response: 3.45

Exam item: May I ask what log10(concentration at 5 h) has been recorded for CCN(C)c1ccc2nc3c4c5c6c(C)c(O)c4c(=O)c(c-3oc2c1)NC(=O)C(C)=CC=CC(C)C(O)C(C)C(O)C(C)C(OC(C)=O)C(C)C(OC)C=COC(C)(O6)C5=O (stereo not drawn) [compound 2] ?
Marked response: 3.48
